ASSAY_OVERVIEW: Tmax in carboxylesterase 1 knockout C57BL/6 mouse brain at 15.12 mg/kg, po administered as single dose measured upto 8 hrs by LC-MS/MS analysis
Format: ADME, organism-based
TEST_READOUT: Tmax (h)
Value expressed in h; do not type the unit.

Challenge: # get_value(readout='Tmax', item= COc1cc(-c2nc(-c3ccccc3)c(-c3cccs3)[nH]2)cc(OC)c1OC(=O)N1CCC(N2CCCCC2)CC1 )
Response given: 1

====

ASSAY_OVERVIEW: AUC in carboxylesterase 1 knockout C57BL/6 mouse plasma at 10 mg/kg, po administered as single dose measured upto 8 hrs by LC-MS/MS analysis
Assay type: ADME, organism-based
Design: time < 8 hrs, dose 10 mg/kg, route po
EXPERIMENTAL_CONDITIONS: in vivo
TEST_READOUT: AUC (µM·h)
Numeric only. Scale: µM·h

Challenge: Please report the recorded AUC for COc1cc(-c2nc(-c3cccs3)c(-c3ccccc3)[nH]2)cc(OC)c1O .
Response given: 0.27

Values compiled from ChEMBL document CHEMBL5137084.
